Biological target: T1, mfGITR.mmh (Macaca fasicularis)
T1 construct: soluble monomeric construct; also called Macaca fasicularis (mf) GITR.mmh; cynomolgus GITR protein
T1 chain: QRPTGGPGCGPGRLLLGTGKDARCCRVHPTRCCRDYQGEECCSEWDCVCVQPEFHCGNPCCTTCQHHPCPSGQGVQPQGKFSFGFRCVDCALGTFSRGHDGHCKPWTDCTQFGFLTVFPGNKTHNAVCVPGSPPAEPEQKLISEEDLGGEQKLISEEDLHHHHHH
Experiment: SPR 37C, mAb capture
Value type: kon (M⁻¹ s⁻¹)
Please respond with the number in M⁻¹ s⁻¹ and leave the unit unwritten.

- Binder: "H4H14476P (antibody, human IgG4, V domains shown, human IgG4 (H4H)) VH: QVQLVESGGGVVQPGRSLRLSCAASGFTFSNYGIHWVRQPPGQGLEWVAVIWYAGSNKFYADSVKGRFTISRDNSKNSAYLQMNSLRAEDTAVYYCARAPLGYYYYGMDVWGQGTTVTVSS VL: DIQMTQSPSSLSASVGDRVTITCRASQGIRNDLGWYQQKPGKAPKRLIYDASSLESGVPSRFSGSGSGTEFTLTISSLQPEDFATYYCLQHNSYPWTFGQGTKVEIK"
  Value type: "kon"
  Uom: "M⁻¹ s⁻¹"
  Numeric value: 191000
- Binder: "H1H14503P (antibody, human IgG1, V domains shown, human IgG1 (H1H)) VH: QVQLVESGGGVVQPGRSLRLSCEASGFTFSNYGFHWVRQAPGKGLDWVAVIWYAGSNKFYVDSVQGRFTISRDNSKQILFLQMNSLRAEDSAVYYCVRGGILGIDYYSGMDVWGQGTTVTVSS VL: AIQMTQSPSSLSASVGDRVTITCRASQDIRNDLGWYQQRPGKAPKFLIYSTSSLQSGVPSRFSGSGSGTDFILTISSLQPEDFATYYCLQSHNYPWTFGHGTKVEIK"
  Value type: "kon"
  Uom: "M⁻¹ s⁻¹"
  Numeric value: 268000
- Binder: "H1H14495P (antibody, human IgG1, V domains shown, human IgG1 (H1H)) VH: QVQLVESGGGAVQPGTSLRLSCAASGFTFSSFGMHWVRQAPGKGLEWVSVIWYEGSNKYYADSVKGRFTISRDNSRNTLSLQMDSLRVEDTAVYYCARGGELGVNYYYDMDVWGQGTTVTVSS VL: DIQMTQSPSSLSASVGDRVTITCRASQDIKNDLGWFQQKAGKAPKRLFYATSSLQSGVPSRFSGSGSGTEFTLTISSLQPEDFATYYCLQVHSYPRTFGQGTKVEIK"
  Value type: "kon"
  Uom: "M⁻¹ s⁻¹"
  Numeric value: 296000
- Binder: "H1H14491P (antibody, human IgG1, V domains shown, human IgG1 (H1H)) VH: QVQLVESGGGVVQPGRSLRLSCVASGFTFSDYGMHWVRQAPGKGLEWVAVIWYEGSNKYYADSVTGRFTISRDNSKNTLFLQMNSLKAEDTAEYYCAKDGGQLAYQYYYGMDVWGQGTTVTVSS VL: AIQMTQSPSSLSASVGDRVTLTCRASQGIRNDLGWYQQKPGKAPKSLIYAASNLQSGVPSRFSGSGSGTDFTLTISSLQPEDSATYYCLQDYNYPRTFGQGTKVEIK"
  Value type: "kon"
  Uom: "M⁻¹ s⁻¹"
  Numeric value: 118000

Next item in the queue.
Asked: Which kon is listed for H1H14524P (antibody, human IgG1, V domains shown, human IgG1 (H1H)) VH: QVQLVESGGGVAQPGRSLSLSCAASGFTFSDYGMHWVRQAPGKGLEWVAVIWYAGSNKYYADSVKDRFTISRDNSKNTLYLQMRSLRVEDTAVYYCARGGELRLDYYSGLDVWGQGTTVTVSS VL: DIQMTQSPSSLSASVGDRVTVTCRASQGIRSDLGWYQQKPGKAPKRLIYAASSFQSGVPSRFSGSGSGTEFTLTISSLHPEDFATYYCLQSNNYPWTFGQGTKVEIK ?
Given back: 120000
